Tested on: SK-MEL-2 melanoma
TEST_METHOD_NOTES: NCI-60 one-dose screen, 48 h
EXPERIMENTAL_SETUP: 10 µM unless noted
Compounds without any hit were thinned out: in the full panel of roughly 83,000, 20% have a hit. Calls of active or inactive are those of the source. The calls were made as follows: active = growth percent below 10; inactive = the rest.
Possible outcomes: true (active), false (inactive)

>  <COMPOUND>
CC/C=C\C[C@H](O)C/C=C1/C(=O)C=C[C@@H]1C/C=C\CCCC(=O)N(C)C

>  <CLASS_LABEL>
false

$$$$
>  <COMPOUND>
Fc1cnccc1C1CC(c2ccc(N3CCNCC3)cc2)=NN1 (stereo not given)

>  <CLASS_LABEL>
false

$$$$
>  <COMPOUND>
O=C(N/N=C/c1c(Cl)cccc1Cl)c1cccnc1Nc1cccc(C(F)(F)F)c1

>  <CLASS_LABEL>
true

$$$$
>  <COMPOUND>
CC(=O)O[C@@H]1C[C@]2(C(C)C)O[C@@]1(C)[C@@H]1CCC(C)=C1[C@@H]2OC(=O)/C=C/c1ccccc1

>  <CLASS_LABEL>
false

$$$$
>  <COMPOUND>
O=C1c2c(c3c4ccccc4[nH]c3c3ccc4ccccc4c23)C(=O)N1CCN1CCOCC1

>  <CLASS_LABEL>
false

$$$$
>  <COMPOUND>
COC(=O)/C=C1/SC(=Nc2cccc(OC)c2)N(CCc2c[nH]c3ccc(O)cc23)C1=O

>  <CLASS_LABEL>
false

$$$$
>  <COMPOUND>
COc1ccc(NC(=O)c2sc3nc(C)c(C(=O)/C=C/c4ccccc4)cc3c2N)cc1

>  <CLASS_LABEL>
false

$$$$
>  <COMPOUND>
CCCCCCCCCCCCCCCCCCOc1ccccc1CC(=O)OCC[N+](C)(C)C

>  <CLASS_LABEL>
false

$$$$
>  <COMPOUND>
COc1ccc(/C=N\Nc2nc(SCCC(C)C)nc(-c3ccc(OC)cc3)c2C#N)cc1

>  <CLASS_LABEL>
false

$$$$
>  <COMPOUND>
COc1ccc(C2=C(Nc3ccc(C(=O)Nc4ccccc4)cc3)C(=O)N(C)C2=O)cc1

>  <CLASS_LABEL>
false

$$$$
>  <COMPOUND>
CCCNc1nc2ccccc2c2c1S(=O)(=O)c1ccc(Cl)cc1C2=O

>  <CLASS_LABEL>
true

$$$$
>  <COMPOUND>
CC(=O)/C(=C\c1c(-c2ccccc2)[nH]c2ccccc12)S(C)(=O)=O

>  <CLASS_LABEL>
false

$$$$
>  <COMPOUND>
C=C1C(=O)O[C@H]2[C@H]1CC/C(COC(=O)/C=C\C(=O)NCc1ccc(Cn3c(=O)sn(CCI)c3=O)cc1)=C\CC[C@@]1(C)O[C@@H]21

>  <CLASS_LABEL>
false

$$$$
>  <COMPOUND>
CCCn1cc2c(=O)nc3sc(Cc4ccccc4)c(C)n3c2n1

>  <CLASS_LABEL>
false

$$$$
>  <COMPOUND>
CCOC(=O)NC(C)C

>  <CLASS_LABEL>
false

$$$$
>  <COMPOUND>
COc1ccc(Nc2ncc(Br)c(NCCCNC(=O)C3CCCC3)n2)cc1

>  <CLASS_LABEL>
false

$$$$
>  <COMPOUND>
COC(=O)c1c(C)nc(C)c2c1C(=O)C(Br)=C(NCc1ccccc1)C2=O

>  <CLASS_LABEL>
false

$$$$
>  <COMPOUND>
COc1ccc(C(=O)/C=C/c2c(C(F)(F)F)nc3ccccn23)cc1OC

>  <CLASS_LABEL>
false

$$$$
>  <COMPOUND>
CCc1ccc(CCCC(=O)O)cc1

>  <CLASS_LABEL>
false

$$$$
>  <COMPOUND>
O=C(O)c1cn(C2CC2)c2cc(N3CCN(C(=O)N(c4ccccc4)c4nc(-c5ccccc5)cs4)CC3)c(F)cc2c1=O

>  <CLASS_LABEL>
true

$$$$

* * *

Test system: SK-MEL-28 melanoma
TEST_METHOD_NOTES: NCI-60 one-dose screen, 48 h
EXPERIMENTAL_SETUP: 10 µM unless noted
About 83,000 compounds went through this panel and 20% of them were active in at least one assay; those are over-represented in the sample as a whole. The source made the active and inactive calls. How the source made its calls: active means growth percent below 10; inactive means the rest.
Possible outcomes: active, inactive

>  <STRUCTURE_SMILES_STRING>
COc1cc2c(cc1OCCCN1CCN(CCCOc3cc4c(cc3OC)C(=O)N3CCC[C@H]3C=N4)CC1)C=CC(C)(C)O2

>  <CLASS_LABEL>
active

$$$$
>  <STRUCTURE_SMILES_STRING>
COc1ccc(-c2ccc(=O)oc2-c2cc(OC)c(OC)c(OC)c2)cc1O

>  <CLASS_LABEL>
inactive

$$$$
>  <STRUCTURE_SMILES_STRING>
Nc1nc(-c2ccc(Cl)cc2)nc2c1sc(=S)n2-c1ccccc1

>  <CLASS_LABEL>
inactive

$$$$
>  <STRUCTURE_SMILES_STRING>
N=C(N)c1ccc(-c2ccc(-c3ccccc3)o2)cc1

>  <CLASS_LABEL>
active

$$$$
>  <STRUCTURE_SMILES_STRING>
CCCCCCCCCCCCCCCCCCOc1ccccc1CC(=O)OCC[N+](C)(C)C

>  <CLASS_LABEL>
inactive

$$$$

* * *

System: HS 578T breast
TEST_METHOD_NOTES: NCI-60 one-dose screen, 48 h (100 = growth as untreated, 0 = no growth, -100 = all killed)
EXPERIMENTAL_SETUP: 10 µM unless noted
This is part of a sample that, as a whole, favours compounds with a hit. Of some 83,000 tested, about 20% had one in any assay.
Labelling field: enter y if recorded growth is less than 30%. Enter n if it equals or exceeds that cut-off.

>  <COMPOUND>
CC/C=C\C[C@H](O)C/C=C1/C(=O)C=C[C@@H]1C/C=C\CCCC(=O)N(C)C

>  <CLASS_LABEL>
y

$$$$
>  <COMPOUND>
Cn1c(=O)c2nc(/C=C/c3ccccc3)c(=O)[nH]c2n(C)c1=S

>  <CLASS_LABEL>
n

$$$$
>  <COMPOUND>
C=CC[Se]C(=O)Cc1c(C)n(C(=O)c2ccc(Cl)cc2)c2ccc(OC)cc12

>  <CLASS_LABEL>
y

$$$$
>  <COMPOUND>
Nc1ncnc2c1C(c1ccc(Br)cc1)c1sc3c(F)cccc3c1O2 (stereo not given)

>  <CLASS_LABEL>
n

$$$$
>  <COMPOUND>
C=CCN=c1sc2c(n1NC(=O)c1cc3ccc1CCc1ccc(cc1)CC3)C(=O)c1ccccc1C2=O

>  <CLASS_LABEL>
y

$$$$
>  <COMPOUND>
CCN(CC)S(=O)(=O)c1ccc(S(=O)(=O)N2CCC[C@@H](C(=O)N3CCN(c4nc(C(C)C)no4)CC3)C2)cc1

>  <CLASS_LABEL>
n

$$$$
>  <COMPOUND>
COc1ccc(-c2nc3cc(C(=O)NCc4ccccc4)ccc3n2C2CCCCC2)cc1

>  <CLASS_LABEL>
n

$$$$
>  <COMPOUND>
O=C(CN1C(=O)NC2NC(=O)NC21)N/N=C/c1ccccc1[N+](=O)[O-] (stereo not given)

>  <CLASS_LABEL>
n

$$$$
>  <COMPOUND>
CCn1c(SCC(=O)N/N=C(\C)c2ccc(Cl)cc2)nc2c1c(=O)n(C)c(=O)n2C

>  <CLASS_LABEL>
n

$$$$

* * *

Recorded growth, one value per entry.
Test system: NCI-H522 lung
TEST_METHOD_NOTES: NCI-60 one-dose screen, 48 h (100 = growth as untreated, 0 = no growth, -100 = all killed)
EXPERIMENTAL_SETUP: 10 µM unless noted
Compounds without any hit were thinned out: in the full panel of roughly 83,000, 20% have a hit.
READOUT_LABEL: growth (%)

>  <STRUCTURE_SMILES_STRING>
COc1ccc(C(=O)/C=C/c2c(C(F)(F)F)nc3ccccn23)cc1OC

>  <TESTED_TARGET>
NCI-H522 lung

>  <READOUT_LABEL>
growth

>  <NUMERIC_READOUT>
10.8

$$$$
>  <STRUCTURE_SMILES_STRING>
Clc1ccc(/C=N\N=C\c2ccc(Cl)c(Cl)c2)cc1Cl

>  <TESTED_TARGET>
NCI-H522 lung

>  <READOUT_LABEL>
growth

>  <NUMERIC_READOUT>
77.4

$$$$
>  <STRUCTURE_SMILES_STRING>
c1cnc2c(-c3nc4ccc5[nH]ncc5c4c4c3CCCC4)c[nH]c2c1

>  <TESTED_TARGET>
NCI-H522 lung

>  <READOUT_LABEL>
growth

>  <NUMERIC_READOUT>
-23.3

$$$$
>  <STRUCTURE_SMILES_STRING>
O=C(Nc1cccc(Cl)c1)Nc1cccc(Cn2c(=O)[nH]c3ccc(Oc4ncccn4)cc3c2=O)c1

>  <TESTED_TARGET>
NCI-H522 lung

>  <READOUT_LABEL>
growth

>  <NUMERIC_READOUT>
25.6

$$$$
>  <STRUCTURE_SMILES_STRING>
Nc1nc(N)c(-c2ccc(Cl)c(Cl)c2)c(CBr)n1

>  <TESTED_TARGET>
NCI-H522 lung

>  <READOUT_LABEL>
growth

>  <NUMERIC_READOUT>
9.79

$$$$
>  <STRUCTURE_SMILES_STRING>
O=S(=O)(Nc1ccc(F)cc1F)c1ccc(-c2cnc(C3CC3)o2)cc1

>  <TESTED_TARGET>
NCI-H522 lung

>  <READOUT_LABEL>
growth

>  <NUMERIC_READOUT>
13.4

$$$$
>  <STRUCTURE_SMILES_STRING>
CC1=C2[C@@H](CC1)[C@]1(C)O[C@@](C(C)C)(C[C@H]1OC(=O)[C@H](C)O)[C@H]2OC(=O)/C=C/c1ccccc1

>  <TESTED_TARGET>
NCI-H522 lung

>  <READOUT_LABEL>
growth

>  <NUMERIC_READOUT>
74

$$$$
>  <STRUCTURE_SMILES_STRING>
C=C(C)[C@@H]1CCC[C@]2(COS(=O)(=O)c3ccc(C)cc3)CC[C@]3(C)[C@@H](CC[C@@H]4[C@@]5(C)CCCNC(C)(C)[C@@H]5CC[C@]43C)[C@@H]12

>  <TESTED_TARGET>
NCI-H522 lung

>  <READOUT_LABEL>
growth

>  <NUMERIC_READOUT>
-41

$$$$
>  <STRUCTURE_SMILES_STRING>
Cc1cn(-c2cc(NC(=O)c3cncc(C#Cc4cnc(N)c5ncccc45)c3)cc(C(F)(F)F)c2)cn1

>  <TESTED_TARGET>
NCI-H522 lung

>  <READOUT_LABEL>
growth

>  <NUMERIC_READOUT>
52.2

$$$$
>  <STRUCTURE_SMILES_STRING>
CCc1ccccc1-n1c(-c2ccc(OC)cc2)cc(-c2ccc(OC)cc2)c(C#N)c1=O

>  <TESTED_TARGET>
NCI-H522 lung

>  <READOUT_LABEL>
growth

>  <NUMERIC_READOUT>
73.8

$$$$
>  <STRUCTURE_SMILES_STRING>
COc1cc(OCc2cccc(Br)c2C)cc(OC)c1C=O

>  <TESTED_TARGET>
NCI-H522 lung

>  <READOUT_LABEL>
growth

>  <NUMERIC_READOUT>
62

$$$$
>  <STRUCTURE_SMILES_STRING>
O=C(Nn1c2c(sc1=NC1CC1)C(=O)c1ccccc1C2=O)c1cc2ccc1CCc1ccc(cc1)CC2

>  <TESTED_TARGET>
NCI-H522 lung

>  <READOUT_LABEL>
growth

>  <NUMERIC_READOUT>
37.3

$$$$
>  <STRUCTURE_SMILES_STRING>
N#Cc1c(-c2ccc(Cl)cc2)c(C#N)c2c(C#N)c(N)nn2c1N

>  <TESTED_TARGET>
NCI-H522 lung

>  <READOUT_LABEL>
growth

>  <NUMERIC_READOUT>
64.8

$$$$
>  <STRUCTURE_SMILES_STRING>
COc1cc2oc(-c3cccc(NC(=O)c4ccccc4)c3)cc(=O)c2c(OC)c1OC

>  <TESTED_TARGET>
NCI-H522 lung

>  <READOUT_LABEL>
growth

>  <NUMERIC_READOUT>
49.3

$$$$
>  <STRUCTURE_SMILES_STRING>
Nc1cc(C(=O)NC[C@H]2CN(c3ccc(N4CCC(C(=O)O)CC4)cc3)C(=O)O2)ccc1Cl

>  <TESTED_TARGET>
NCI-H522 lung

>  <READOUT_LABEL>
growth

>  <NUMERIC_READOUT>
92

$$$$
>  <STRUCTURE_SMILES_STRING>
Nc1n[nH]c2cccc(C#Cc3cccc(NC(=O)c4cc(F)cc(C(F)(F)F)c4)c3)c12

>  <TESTED_TARGET>
NCI-H522 lung

>  <READOUT_LABEL>
growth

>  <NUMERIC_READOUT>
62.6

$$$$
>  <STRUCTURE_SMILES_STRING>
O=C(Nc1ccc(Oc2cccc(Cl)c2)c(Cl)c1)c1cnccn1

>  <TESTED_TARGET>
NCI-H522 lung

>  <READOUT_LABEL>
growth

>  <NUMERIC_READOUT>
12.5

$$$$
>  <STRUCTURE_SMILES_STRING>
O=S(=O)(Nc1ccc(Cl)c(C(F)(F)F)c1)c1ccc(-c2cnc(C3CC3)o2)cc1

>  <TESTED_TARGET>
NCI-H522 lung

>  <READOUT_LABEL>
growth

>  <NUMERIC_READOUT>
-1.8

$$$$
>  <STRUCTURE_SMILES_STRING>
OCCn1cc(-c2nc(-c3c[nH]c4ncccc34)cs2)c2ccccc21

>  <TESTED_TARGET>
NCI-H522 lung

>  <READOUT_LABEL>
growth

>  <NUMERIC_READOUT>
58.6

$$$$
